- assay protocol: Oral dose pharmacokinetics
- Assay type: in vivo, Sprague–Dawley rats
- condition notes: male, Sprague-Dawley, rat, plasma, po, 2 mg/kg
value type: Cmax (nM)

1) C#Cc1ccc2c(c1)C(c1ccccn1)=NCc1c(-c3cnco3)ncn1-2 [KRM-II-81]
1830
2) C#Cc1ccc2c(c1)C(c1ccccn1)=NCc1c(-c3cnco3)ncn1-2.Cl [KRM-II-81·HCl]
1320

====

- assay protocol: Oral dose pharmacokinetics
- Assay type: in vivo, Sprague–Dawley rats
- condition notes: male, Sprague-Dawley, rat, brain, po, 2 mg/kg
value type: AUC(0-t) (µM·h)

1) C#Cc1ccc2c(c1)C(c1ccccn1)=NCc1c(-c3cnco3)ncn1-2
2.69
2) C#Cc1ccc2c(c1)C(c1ccccn1)=NCc1c(-c3cnco3)ncn1-2.Cl [KRM-II-81·HCl]
2.66
